Data provenance: ChEMBL document CHEMBL1137901

System: Hepatitis C virus
Test: In vitro inhibitory concentration against hepatitis C virus internal ribosome entry site (HCV-IRES) translation
Type: functional, Hepacivirus hominis
API: label(entry) gives MET if the entry's IC50 is strictly smaller than 20 µM; on equality or larger values it gives NOT MET.

smiles-notation	system	assigned-category
Cc1cc(C)nc(/N=C(\N)NCCc2ccc([N+](=O)[O-])cc2)n1	Hepatitis C virus	NOT MET
Cc1cc(C)nc(/N=C(\N)NCCc2ccccc2C)n1	Hepatitis C virus	MET
Cc1cc(C)nc(/N=C(\N)NCCc2ccccc2Cl)n1	Hepatitis C virus	MET
COc1ccc(CC/N=C(\N)Nc2nc(C)cc(C)n2)c(OC)c1	Hepatitis C virus	NOT MET
Cc1ccc(CC/N=C(\N)Nc2nc(C)cc(C)n2)c(C)c1	Hepatitis C virus	NOT MET
Cc1cc(C)nc(/N=C(\N)NCCc2ccc(C(=O)O)cc2)n1	Hepatitis C virus	NOT MET

Check if IC50 falls below 20 µM for Cc1cc(C)nc(/N=C(\N)NCCc2ccc(C(F)(F)F)cc2)n1 . NOT MET

Check if IC50 falls below 20 µM for Cc1cc(C)nc(/N=C(\N)NC[C@@H](O)c2ccccc2)n1 . MET

----------
Tested on: Hepatitis C virus
Assay: Selectivity was determined as the ratio of IC50 of non-IRES to that of IC50 of HCV-IRES
Type: functional, Hepacivirus hominis
API: label(entry) gives Satisfied if the entry's Selectivity is strictly smaller than 3; on equality or larger values it gives Not satisfied.

Please review the entries below; each comes with its answer.
smiles-notation	assigned-category
Cc1ccc(CC/N=C(\N)Nc2nc(C)cc(C)n2)c(C)c1	Not satisfied
Cc1cc(C)nc(N/C(N)=N/C[C@H](C)c2ccccc2)n1	Not satisfied
Cc1cc(C)nc(/N=C(\N)NCCc2cccc(Cl)c2)n1	Satisfied
COc1ccc(CCNC(=N)Nc2nc(C)cc(C)n2)cc1	Not satisfied
Cc1ccc(C)c(CC/N=C(\N)Nc2nc(C)cc(C)n2)c1	Not satisfied

Check if Selectivity falls below 3 for Cc1cc(C)nc(/N=C(\N)NCCc2ccc(N)cc2)n1 . Satisfied

Check if Selectivity falls below 3 for Cc1cc(C)nc(/N=C(\N)NCCCc2ccccc2)n1 . Satisfied

Check if Selectivity falls below 3 for Cc1cc(C)nc(/N=C(\N)NCCc2ccccc2C)n1 . Satisfied

Check if Selectivity falls below 3 for COc1c(C)nc(/N=C(\N)NCCc2ccccc2)nc1C . Not satisfied

Check if Selectivity falls below 3 for Cc1cc(C)nc(/N=C(\N)NCc2cc3ccccc3o2)n1 . Satisfied

Check if Selectivity falls below 3 for COc1cc(CC/N=C(\N)Nc2nc(C)cc(C)n2)cc(OC)c1 . Not satisfied

Check if Selectivity falls below 3 for Cc1ccc(CC/N=C(\N)Nc2nc(C)cc(C)n2)cc1 . Not satisfied

Check if Selectivity falls below 3 for COc1ccccc1CC/N=C(\N)Nc1nc(C)cc(C)n1 . Satisfied

Check if Selectivity falls below 3 for COC(=O)c1ccc(CC/N=C(\N)Nc2nc(C)cc(C)n2)cc1 . Not satisfied

----------
Recorded Selectivity, one value per entry.
Test system: Hepatitis C virus
Assay: Selectivity was determined as the ratio of IC50 of non-IRES to that of IC50 of HCV-IRES
Type: functional, Hepacivirus hominis

Look over these answered cases.
smiles-notation	Selectivity
Cc1cc(C)nc(/N=C(\N)NCCc2ccc(C(F)(F)F)cc2)n1	2.2
Cc1nc(/N=C(\N)NCCc2ccccc2)nc(C)c1Br	2.2
Cc1cc(C)nc(/N=C(\N)NCCc2ccc3ccccc3n2)n1	3.7
Cc1cc(C)nc(/N=C(\N)NCc2cccs2)n1	1.3
Cc1cc(C)nc(/N=C(\N)NCc2nc3ccccc3[nH]2)n1	1.7
Cc1cc(C)nc(/N=C(\N)NCCc2ccccc2)n1	2.4
Cc1cc(C)nc(/N=C(\N)NCCc2ccccc2Cl)n1	1.8
COc1ccc(OC)c(CC/N=C(\N)Nc2nc(C)cc(C)n2)c1	>2.1
Cc1nc(/N=C(\N)NCCc2ccccc2)nc(C)c1C	1.3
Cc1cc(C)nc(/N=C(\N)NCC(c2ccccc2)c2ccccc2)n1	>2.7

Assign Selectivity to the following record: Cc1cc(C)nc(/N=C(\N)NCc2ccccc2)n1 2.6

Assign Selectivity to the following record: COc1cc(OC)c(CC/N=C(\N)Nc2nc(C)cc(C)n2)c(OC)c1 >2

Assign Selectivity to the following record: Cc1nc(/N=C(\N)NCCc2ccccc2)nc(C)c1O 3.6

Assign Selectivity to the following record: Cc1cc(C)nc(/N=C(\N)NCCc2ccc(Br)cc2)n1 2.5

Assign Selectivity to the following record: Cc1cc(C)nc(/N=C(\N)NC[C@@H](O)c2ccccc2)n1 >2.2

----------
Recorded Selectivity, one value per entry.
Tested on: Hepatitis C virus
Experiment: Selectivity was determined as the ratio of IC50 of non-IRES to that of IC50 of HCV-IRES
Format: functional, Hepacivirus hominis
Respond using a number only.

Look over these answered cases.
smiles-notation	system	readout-type	test-result
Cc1nc(/N=C(\N)NCCc2ccccc2)nc(C)c1OCCCN(C)C	Hepatitis C virus	Selectivity	2
COc1ccc(CC/N=C(\N)Nc2nc(C)cc(C)n2)c(OC)c1	Hepatitis C virus	Selectivity	2.6
Cc1cc(C)nc(/N=C(\N)NCCc2ccc(Cl)cc2)n1	Hepatitis C virus	Selectivity	2.3
COc1cc(OC)nc(/N=C(\N)NCCc2ccccc2)n1	Hepatitis C virus	Selectivity	5

As a next step, examine the molecule that follows.
Assign Selectivity to the following record: Cc1cccc(CC/N=C(\N)Nc2nc(C)cc(C)n2)c1 2.8

----------
Test system: Hepatitis C virus
Assay: In vitro inhibitory concentration against hepatitis C virus internal ribosome entry site (HCV-IRES) translation
Assay type: functional, Hepacivirus hominis
readout-type: pIC50
Hey, just a heads up that pIC50 is the negative log base 10 of the concentration in molar.

Look over these answered cases.
smiles-notation	system	pIC50
Cc1cc(C)nc(/N=C(\N)NCCc2cccnc2)n1	Hepatitis C virus	4.49
Cc1cc(C)nc(N/C(N)=N/CCc2ccc(C(C)C)cc2)n1	Hepatitis C virus	3.98
Cc1cccc(CC/N=C(\N)Nc2nc(C)cc(C)n2)c1	Hepatitis C virus	4.64
Cc1cc(C)nc(/N=C(\N)NCCc2ccc(-c3ccccc3)cc2)n1	Hepatitis C virus	4.10
COc1cc(OC)c(CC/N=C(\N)Nc2nc(C)cc(C)n2)c(OC)c1	Hepatitis C virus	4.00

Assign pIC50 to the following record: Cc1nc(/N=C(\N)NCCc2ccccc2)nc(C)c1Br 5.09

Assign pIC50 to the following record: COc1cc(CC/N=C(\N)Nc2nc(C)cc(C)n2)cc(OC)c1 4.59

Assign pIC50 to the following record: Cc1cc(C)nc(/N=C(\N)NCCc2ccc(OC(F)(F)F)cc2)n1 4.04

Assign pIC50 to the following record: Cc1cc(C)nc(/N=C(\N)NC[C@H](O)c2ccccc2)n1 4.12

Assign pIC50 to the following record: COC(=O)c1ccc(CC/N=C(\N)Nc2nc(C)cc(C)n2)cc1 4.54

----------
Recorded Selectivity, one value per entry.
Tested on: Hepatitis C virus
Assay: Selectivity was determined as the ratio of IC50 of non-IRES to that of IC50 of HCV-IRES
Type: functional, Hepacivirus hominis
Respond using a number only.

smiles-notation	test-result
Cc1cc(C)nc(/N=C(\N)NCCc2ccc(O)cc2)n1	3
Cc1cc(C)nc(N/C(N)=N/C[C@@H](C)c2ccccc2)n1	1.9
Cc1ccnc(/N=C(\N)NCCc2ccccc2)n1	3.5

Assign Selectivity to the following record: Cc1cc(C)nc(/N=C(\N)NCCc2cccnc2)n1 4

Assign Selectivity to the following record: Cc1cc(C)nc(/N=C(\N)NCCc2ccc([N+](=O)[O-])cc2)n1 1.5

----------
Tested on: Hepatitis C virus
Assay: Selectivity was determined as the ratio of IC50 of non-IRES to that of IC50 of HCV-IRES
Type: functional, Hepacivirus hominis
readout-type: Selectivity
Respond using a number only.

Look over these answered cases.
smiles-notation	test-result
CCc1cc(CC)nc(/N=C(\N)NCCc2ccccc2)n1	2.2
Cc1cc(C)nc(/N=C(\N)NCCc2ccc(F)cc2)n1	4.1

Assign Selectivity to the following record: Cc1cc(C)nc(/N=C(\N)NCCc2ccccn2)n1 2.4

----------
System: Hepatitis C virus
Assay: In vitro inhibitory concentration against hepatitis C virus internal ribosome entry site (HCV-IRES) translation
Assay type: functional, Hepacivirus hominis
readout-type: pIC50
Hey, just a heads up that pIC50 is the negative log base 10 of the concentration in molar.

Look over these answered cases.
smiles-notation	system	pIC50
COc1c(C)nc(/N=C(\N)NCCc2ccccc2)nc1C	Hepatitis C virus	5.00
Cc1cc(C)nc(/N=C(\N)NCc2cc3ccccc3o2)n1	Hepatitis C virus	4.60

Assign pIC50 to the following record: Cc1cc(C)nc(N/C(N)=N/C[C@@H](C)c2ccccc2)n1 4.68

Assign pIC50 to the following record: Cc1cc(C)nc(/N=C(\N)NCCc2cccc(Cl)c2)n1 4.92

Assign pIC50 to the following record: Cc1cc(C)nc(/N=C(\N)NCCc2ccc3ccccc3n2)n1 4.64

Assign pIC50 to the following record: Cc1cc(C)nc(/N=C(\N)NCCc2ccc(O)cc2)n1 4.31
